METHOD SUMMARY: qHTS assay to test for compound auto fluorescence at 590 nm (red) in HEK293 cell free culture (AID 720683)
CONDITION CONTEXT: cell-free medium autofluorescence, Ex540/Em590 red; series mostly up to 46 µM
Activity calls are given as the source filed them. Calls come from the whole dose curve; as a rule, active = well fitted curve in the direction sought with a large enough effect in the repeat runs; inconclusive = weak or mixed curves; inactive = flat fitted curve, though single readings scatter.

MOLECULE	outcome
CC(C)(C)CC(=O)OCC(=O)[C@@]12OC(C)(C)O[C@@H]1C[C@H]1[C@@H]3CCC4=CC(=O)C=C[C@]4(C)[C@@]3(F)[C@@H](O)C[C@@]12C	inactive
CC(C)c1nc(N(C)S(C)(=O)=O)nc(-c2ccc(F)cc2)c1/C=C/C(O)CC(O)CC(=O)O (stereo not drawn)	inactive
CC(C)C(=O)OCC(=O)[C@@]12O[C@H](C3CCCCC3)O[C@@H]1C[C@H]1[C@@H]3CCC4=CC(=O)C=C[C@]4(C)[C@H]3[C@@H](O)C[C@@]12C	inactive
